This listing pairs molecules with measured IC50.
biological target: Kallikrein-5 (Homo sapiens); assay: Inhibition of human recombinant KLK5 expressed in baculovirus-infected insect cell system using Abz-KLRSSKQ-Eddnp as substrate incubated for 5 mins prior to substrate addition by FRET assay
Sequence (Q9Y337 whole entry): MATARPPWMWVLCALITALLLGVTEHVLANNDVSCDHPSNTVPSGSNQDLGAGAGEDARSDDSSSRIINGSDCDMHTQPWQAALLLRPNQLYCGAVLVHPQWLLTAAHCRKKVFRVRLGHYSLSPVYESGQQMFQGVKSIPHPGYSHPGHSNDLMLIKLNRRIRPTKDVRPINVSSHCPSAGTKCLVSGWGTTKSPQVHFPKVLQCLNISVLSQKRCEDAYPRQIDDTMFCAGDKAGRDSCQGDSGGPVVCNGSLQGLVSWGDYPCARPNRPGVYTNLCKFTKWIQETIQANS

# Molecule, Units, IC50
measured = [
    ("CSCC[C@H](NC(=O)OC(C)(C)C)C(=O)N[C@H]1CO[C@H]2[C@@H]1OC[C@H]2OCc1ccccc1", "µM", 37),
    ("CC(C)(C)OC(=O)N[C@H](Cc1c[nH]c2ccccc12)C(=O)O[C@@H]1CO[C@H]2[C@@H]1OC[C@H]2OCc1ccccc1", "µM", 377),
    ("O=C(N[C@H]1CO[C@H]2[C@@H]1OC[C@H]2OCc1ccccc1)[C@H]1CCCN1C(=O)OCc1ccccc1", "µM", 321),
    ("CC(C)(C)OC(=O)N[C@H](CCCN/C(=N\\C(=O)OCc1ccccc1)NC(=O)OCc1ccccc1)C(=O)N[C@H]1CO[C@H]2[C@@H]1OC[C@H]2OCc1ccccc1", "µM", 11.8),
    ("O=C(N[C@H]1CO[C@H]2[C@@H]1OC[C@H]2OCc1ccccc1)/C(=C/c1cccs1)NC(=O)c1ccccc1 (stereo in doubt)", "µM", 99.2),
    ("CC(C)(C)OC(=O)N[C@H](Cc1c[nH]c2ccccc12)C(=O)N[C@H]1CO[C@H]2[C@@H]1OC[C@H]2OCc1ccccc1", "µM", 39.2),
]

###

Recorded pIC50, one value per entry.
biological target: Kallikrein-7 (Homo sapiens, UniProt P49862); assay: Inhibition of human recombinant KLK7 expressed in baculovirus-infected insect cell system using Abz-KLYSSKQ-Eddnp as substrate incubated for 5 mins prior to substrate addition by FRET assay
Sequence (P49862 whole entry): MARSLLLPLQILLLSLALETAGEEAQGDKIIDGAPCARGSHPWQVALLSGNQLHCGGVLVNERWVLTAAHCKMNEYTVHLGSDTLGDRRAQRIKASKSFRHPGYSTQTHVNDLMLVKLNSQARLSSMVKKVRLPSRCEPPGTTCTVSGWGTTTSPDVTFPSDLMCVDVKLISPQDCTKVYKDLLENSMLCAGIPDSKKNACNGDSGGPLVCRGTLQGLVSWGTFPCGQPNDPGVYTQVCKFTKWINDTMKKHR
pIC50: −log10 of the molar value.

# Sample smiles, pIC50
data = [
    ("CC(C)(C)OC(=O)N[C@@H](CC(=O)OCc1ccccc1)C(=O)O[C@@H]1CO[C@H]2[C@@H]1OC[C@H]2OCc1ccccc1", 4.99),
    ("CSCC[C@H](NC(=O)OC(C)(C)C)C(=O)O[C@@H]1CO[C@H]2[C@@H]1OC[C@H]2OCc1ccccc1", 4.54),
    ("CSCC[C@H](NC(=O)OC(C)(C)C)C(=O)N[C@H]1CO[C@H]2[C@@H]1OC[C@H]2OCc1ccccc1", 3.34),
    ("CC(C)(C)OC(=O)N[C@H](COCc1ccccc1)C(=O)N[C@H]1CO[C@H]2[C@@H]1OC[C@H]2OCc1ccccc1", 4.07),
    ("CC(C)(C)OC(=O)N[C@@H](CCCCNC(=O)OCc1ccccc1)C(=O)N[C@H]1CO[C@H]2[C@@H]1OC[C@H]2OCc1ccccc1", 4.63),
    ("CC(C)(C)OC(=O)N[C@H](Cc1c[nH]c2ccccc12)C(=O)N[C@H]1CO[C@H]2[C@@H]1OC[C@H]2OCc1ccccc1", 3.38),
    ("Cc1ccc(S(=O)(=O)n2cnc(C[C@H](NC(=O)OC(C)(C)C)C(=O)N[C@H]3CO[C@H]4[C@@H]3OC[C@H]4OCc3ccccc3)c2)cc1", 4.56),
]

###

target: Kallikrein-5 (Homo sapiens); test: Competitive inhibition of human recombinant KLK5 expressed in baculovirus-infected insect cell system using Abz-KLRSSKQ-Eddnp as substrate incubated for 5 mins prior to substrate addition by Lineweaver-Burk plot analysis
pKi: −log10 of the molar value.
// N strictly below 6 in pKi; Y otherwise

# Compound, Measured target, Class name
records = [
    ("O=C(N[C@H]1CO[C@H]2[C@@H]1OC[C@H]2OCc1ccccc1)/C(=C/c1cccs1)NC(=O)c1ccccc1 (stereo in doubt)", "Kallikrein-5 (Homo sapiens)", "N"),
    ("CC(C)(C)OC(=O)N[C@@H](CC(=O)OCc1ccccc1)C(=O)O[C@@H]1CO[C@H]2[C@@H]1OC[C@H]2OCc1ccccc1", "Kallikrein-5 (Homo sapiens)", "Y"),
    ("O=C(O[C@@H]1CO[C@H]2[C@@H]1OC[C@H]2OCc1ccccc1)[C@H]1CCCN1C(=O)OCc1ccccc1", "Kallikrein-5 (Homo sapiens)", "Y"),
    ("CC(C)[C@H](NC(=O)OCc1ccccc1)C(=O)N[C@H](Cc1ccccc1)C(=O)N[C@H]1CO[C@H]2[C@@H]1OC[C@H]2OCc1ccccc1", "Kallikrein-5 (Homo sapiens)", "N"),
    ("CC(C)(C)OC(=O)N[C@@H](CCCCNC(=O)OCc1ccccc1)C(=O)N[C@H]1CO[C@H]2[C@@H]1OC[C@H]2OCc1ccccc1", "Kallikrein-5 (Homo sapiens)", "N"),
    ("CC(C)(C)OC(=O)N[C@H](COCc1ccccc1)C(=O)O[C@@H]1CO[C@H]2[C@@H]1OC[C@H]2OCc1ccccc1", "Kallikrein-5 (Homo sapiens)", "N"),
    ("CSCC[C@H](NC(=O)OC(C)(C)C)C(=O)N[C@H]1CO[C@H]2[C@@H]1OC[C@H]2OCc1ccccc1", "Kallikrein-5 (Homo sapiens)", "N"),
]
